Tested on: Mycobacterium tuberculosis
Assay: Antitubercular activity against serine beta-lactamase producing Mycobacterium tuberculosis H37Rv after 14 days in presence of GAST/Fe medium by eleven fold serial dilution method
Type: functional
Settings: 336 h
Reported property: MIC99 (µg/mL)
The answer is to be given in µg/mL; state only the numeric part.

So for COc1ccc(S[C@H]2CC(=O)N2C(=O)N[C@H](C)c2ccccc2)cc1 , the logged MIC99 turned out to be 25

So for C[C@H](NC(=O)N1C(=O)C[C@H]1Sc1ccc(F)c(Cl)c1)c1ccccc1 , the logged MIC99 turned out to be 1.5

So for C[C@@H](NC(=O)N1C(=O)C[C@H]1Sc1ccc(F)c(F)c1)c1ccccc1 , the logged MIC99 turned out to be 0.7

So for C[C@@H](NC(=O)N1C(=O)C[C@@H]1Sc1ccc(F)c(Cl)c1)c1ccccc1 , the logged MIC99 turned out to be 1.5

So for C[C@H](NC(=O)N1C(=O)C[C@H]1Sc1ccc(F)cc1)c1ccccc1 , the logged MIC99 turned out to be 12.5

So for O=C1CC(Sc2ccc(F)c(Cl)c2)N1 (racemic) , the logged MIC99 turned out to be 0.7

So for C[C@@H](NC(=O)N1C(=O)C[C@H]1Sc1ccccc1F)c1ccccc1 , the logged MIC99 turned out to be 12.5

So for C[C@H](NC(=O)N1C(=O)C[C@H]1Sc1ccc(F)cc1F)c1ccccc1 , the logged MIC99 turned out to be 0.7

So for C[C@@H](NC(=O)N1C(=O)C[C@@H]1[Se]c1ccccc1)c1ccccc1 , the logged MIC99 turned out to be 12.5

So for C[C@H](NC(=O)N1C(=O)C[C@H]1Sc1ccccc1F)c1ccccc1 , the logged MIC99 turned out to be 12.5

So for C[C@@H](NC(=O)N1C(=O)C[C@H]1Sc1c(F)c(F)c(F)c(F)c1F)c1ccccc1 , the logged MIC99 turned out to be 0.3

So for C[C@@H](NC(=O)N1C(=O)C[C@H]1Sc1ccc(F)cc1F)c1ccccc1 , the logged MIC99 turned out to be 0.3

So for C[C@@H](NC(=O)N1C(=O)C[C@@H]1Sc1ccc(F)cc1)c1ccccc1 , the logged MIC99 turned out to be 12.5

So for C[C@H](NC(=O)N1C(=O)C[C@@H]1Sc1ccc(F)cc1)c1ccccc1 , the logged MIC99 turned out to be 12.5

So for C[C@@H](NC(=O)N1C(=O)C[C@@H]1Sc1ccc(F)cc1F)c1ccccc1 , the logged MIC99 turned out to be 0.7

###

Tested on: Mycobacterium tuberculosis
Test: Antitubercular activity against serine beta-lactamase producing Mycobacterium tuberculosis H37Rv after 14 days in presence of middlebrook 7H9/BSA medium by eleven fold serial dilution method
Format: functional
Conditions: 336 h
Reported property: log10 MIC99 (log10 of the value in µg/mL)
All values: base-10 log of MIC99 in µg/mL.

So for COc1ccccc1S[C@H]1CC(=O)N1C(=O)N[C@@H](C)c1ccccc1 , the logged log10 MIC99 turned out to be 1.40

So for O=C1CC(Sc2ccc(F)cc2F)N1 (racemic) , the logged log10 MIC99 turned out to be 0.49

So for COc1ccc(S[C@@H]2CC(=O)N2C(=O)N[C@@H](C)c2ccccc2)cc1 , the logged log10 MIC99 turned out to be 1.70

So for C[C@H](NC(=O)N1C(=O)C[C@H]1[Se]c1ccccc1)c1ccccc1 , the logged log10 MIC99 turned out to be 1.40

So for C[C@H](NC(=O)N1C(=O)C[C@H]1Sc1ccc(F)c(Cl)c1)c1ccccc1 , the logged log10 MIC99 turned out to be 1.40

So for C[C@@H](NC(=O)N1C(=O)C[C@@H]1Sc1ccccc1F)c1ccccc1 , the logged log10 MIC99 turned out to be 1.40

So for COc1ccccc1S[C@H]1CC(=O)N1C(=O)N[C@H](C)c1ccccc1 , the logged log10 MIC99 turned out to be 1.70

So for C[C@@H](NC(=O)N1C(=O)C[C@H]1[Se]c1ccccc1)c1ccccc1 , the logged log10 MIC99 turned out to be 1.40

So for O=C1CC(Sc2ccccc2F)N1C(=O)NCc1ccccc1 (racemic) , the logged log10 MIC99 turned out to be 1.40

So for C[C@@H](NC(=O)N1C(=O)C[C@H]1Sc1ccc(F)cc1F)c1ccccc1 , the logged log10 MIC99 turned out to be 1.70

So for C[C@H](NC(=O)N1C(=O)C[C@@H]1Sc1ccc(C(F)(F)F)cc1)c1ccccc1 , the logged log10 MIC99 turned out to be 1.40

So for O=C1CC(Sc2c(F)c(F)c(F)c(F)c2F)N1C(=O)NCc1ccccc1 (racemic) , the logged log10 MIC99 turned out to be 1.10

So for COc1ccccc1S[C@@H]1CC(=O)N1C(=O)N[C@@H](C)c1ccccc1 , the logged log10 MIC99 turned out to be 2.00

So for O=C1CC(Sc2ccc(F)cc2Cl)N1 (racemic) , the logged log10 MIC99 turned out to be 1.40

So for C[C@@H](NC(=O)N1C(=O)C[C@H]1Sc1ccc(C(F)(F)F)cc1)c1ccccc1 , the logged log10 MIC99 turned out to be 2.00

So for C[C@H](NC(=O)N1C(=O)C[C@H]1Sc1ccccc1F)c1ccccc1 , the logged log10 MIC99 turned out to be 1.70

So for C[C@H](NC(=O)N1C(=O)C[C@@H]1Sc1c(F)c(F)c(F)c(F)c1F)c1ccccc1 , the logged log10 MIC99 turned out to be 2.00

###

Test system: Mycobacterium tuberculosis
Assay: Antitubercular activity against serine beta-lactamase producing Mycobacterium tuberculosis H37Rv after 14 days in presence of middlebrook 7H9/BSA medium by eleven fold serial dilution method
Assay type: functional
Settings: 336 h
Would you mind telling me the reported MIC99 of each entry?
The answer is to be given in µg/mL; state only the numeric part.

So for O=C1CC([Se]c2ccccc2)N1C(=O)NCc1ccccc1 (racemic) , the logged MIC99 turned out to be 25

So for C[C@@H](NC(=O)N1C(=O)C[C@H]1Sc1ccc(F)c(Cl)c1)c1ccccc1 , the logged MIC99 turned out to be 25

So for C[C@H](NC(=O)N1C(=O)C[C@@H]1Sc1ccc(F)cc1F)c1ccccc1 , the logged MIC99 turned out to be 12.5

So for C[C@@H](NC(=O)N1C(=O)C[C@@H]1Sc1ccc(F)cc1)c1ccccc1 , the logged MIC99 turned out to be 50

So for C[C@H](NC(=O)N1C(=O)C[C@@H]1Sc1ccccc1F)c1ccccc1 , the logged MIC99 turned out to be 25

So for C[C@H](NC(=O)N1C(=O)C[C@H]1Sc1ccc(F)cc1Cl)c1ccccc1 , the logged MIC99 turned out to be 37.5

So for COc1ccc(SC2CC(=O)N2C(=O)NCc2ccccc2)cc1 (racemic) , the logged MIC99 turned out to be 125

So for C[C@@H](NC(=O)N1C(=O)C[C@@H]1Sc1ccc(C(F)(F)F)cc1)c1ccccc1 , the logged MIC99 turned out to be 100

So for O=C1CC(Sc2ccccc2F)N1 (racemic) , the logged MIC99 turned out to be 100

###

Test system: Moraxella catarrhalis
Test: Bactericidal activity against serine beta-lactamase producing Moraxella catarrhalis incubated in MH broth for 24 to 48 hrs by microbroth dilution method
Type: functional
Would you mind telling me the reported MBC of each entry?
The answer is to be given in µg/mL; state only the numeric part.

So for O=C1CC(Sc2c(F)c(F)c(F)c(F)c2F)N1C(=O)NCc1ccccc1 (racemic) , the logged MBC turned out to be 6.2

So for C[C@@H](NC(=O)N1C(=O)C[C@H]1Sc1ccc(F)cc1)c1ccccc1 , the logged MBC turned out to be 25

So for C[C@H](NC(=O)N1C(=O)C[C@H]1Sc1ccc(C(F)(F)F)cc1)c1ccccc1 , the logged MBC turned out to be 200

So for C[C@H](NC(=O)N1C(=O)C[C@@H]1Sc1ccc(F)cc1F)c1ccccc1 , the logged MBC turned out to be 12.5

So for O=C1CC(Sc2ccc(F)c(Cl)c2)N1C(=O)NCc1ccccc1 (racemic) , the logged MBC turned out to be 6.2

So for C[C@H](NC(=O)N1C(=O)C[C@H]1[Se]c1ccccc1)c1ccccc1 , the logged MBC turned out to be 50

So for O=C1CC(Sc2ccc(F)cc2F)N1 (racemic) , the logged MBC turned out to be 3.1

So for C[C@@H](NC(=O)N1C(=O)C[C@@H]1Sc1ccccc1F)c1ccccc1 , the logged MBC turned out to be 50

So for O=C1CC([Se]c2ccccc2)N1C(=O)NCc1ccccc1 (racemic) , the logged MBC turned out to be 12.5

So for C[C@H](NC(=O)N1C(=O)C[C@@H]1Sc1ccc(F)c(Cl)c1)c1ccccc1 , the logged MBC turned out to be 25
